Items are presented alongside their recorded CC50.
Assay Explanation: Cytotoxicity against human MRC5 cells by sulforhodamine B assay
Type: cell-based
Conditions: read-out: ED50 (the source's name)
Field: numeric (µM). Do not append units.

Consider the following illustrative entries.
COc1cc([C@@H]2c3cc4c(cc3[C@@H](Nc3ccc(C(=O)NCCCC(=O)O[C@@H](C(=O)O[C@H]5C[C@@]6(O)[C@@H](OC(=O)c7ccccc7)[C@@H]7[C@]8(OC(C)=O)CO[C@@H]8C[C@H](O)[C@@]7(C)C(=O)[C@H](OC(C)=O)C(=C5C)C6(C)C)[C@@H](NC(=O)c5ccccc5)c5ccccc5)cc3)[C@H]3COC(=O)[C@H]23)OCO4)cc(OC)c1O 6.17
CC[C@@]1(O)C(=O)OCn2c1cc1c(c2=O)Cc2c-1nc1ccccc1c2CNCCC(=O)O[C@@H](C(=O)O[C@H]1C[C@@]2(O)[C@@H](OC(=O)c3ccccc3)[C@@H]3[C@]4(OC(C)=O)CO[C@@H]4C[C@H](O)[C@@]3(C)C(=O)[C@H](OC(C)=O)C(=C1C)C2(C)C)[C@@H](NC(=O)c1ccccc1)c1ccccc1 6.13
CC[C@@]1(O)C(=O)OCn2c1cc1c(c2=O)Cc2c-1nc1ccccc1c2/C=N/CCC(=O)O[C@@H](C(=O)O[C@H]1C[C@@]2(O)[C@@H](OC(=O)c3ccccc3)[C@@H]3[C@]4(OC(C)=O)CO[C@@H]4C[C@H](O)[C@@]3(C)C(=O)[C@H](OC(C)=O)C(=C1C)C2(C)C)[C@@H](NC(=O)c1ccccc1)c1ccccc1 0.178
CC[C@@]1(O)C(=O)OCn2c1cc1c(c2=O)Cc2c-1nc1ccccc1c2/C=N/CCCC(=O)O[C@@H](C(=O)O[C@H]1C[C@@]2(O)[C@@H](OC(=O)c3ccccc3)[C@@H]3[C@]4(OC(C)=O)CO[C@@H]4C[C@H](O)[C@@]3(C)C(=O)[C@H](OC(C)=O)C(=C1C)C2(C)C)[C@@H](NC(=O)c1ccccc1)c1ccccc1 0.244

Q: Need CC50 of COc1cc([C@@H]2c3cc4c(cc3[C@@H](Nc3ccc(C(=O)NCCC(=O)O[C@H]5C[C@H]6OC[C@@]6(OC(C)=O)[C@H]6[C@H](OC(=O)c7ccccc7)[C@]7(O)C[C@H](OC(=O)[C@H](O)[C@@H](NC(=O)c8ccccc8)c8ccccc8)C(C)=C([C@@H](OC(C)=O)C(=O)[C@]56C)C7(C)C)cc3)[C@H]3COC(=O)[C@H]23)OCO4)cc(OC)c1O , thanks.
Result: 3.28

###

Assay Explanation: Cytotoxicity against multi drug-resistant human KBVIN cells by sulforhodamine B assay
Type: functional
Conditions: read-out: ED50 (the source's name)
Experimental Endpoint: pEC50
Schema: pEC50 number; meaning minus log10 of the concentration expressed in molar units.

Consider the following illustrative entries.
Compound	pEC50
COc1cc([C@@H]2c3cc4c(cc3[C@@H](Nc3ccc(C(=O)NCCC(=O)O[C@@H](C(=O)O[C@H]5C[C@@]6(O)[C@@H](OC(=O)c7ccccc7)[C@@H]7[C@]8(OC(C)=O)CO[C@@H]8C[C@H](O)[C@@]7(C)C(=O)[C@H](OC(C)=O)C(=C5C)C6(C)C)[C@@H](NC(=O)c5ccccc5)c5ccccc5)cc3)[C@H]3COC(=O)[C@H]23)OCO4)cc(OC)c1O	5.00
CC[C@@]1(O)C(=O)OCn2c1cc1c(c2=O)Cc2c-1nc1ccccc1c2CNCCC(=O)O[C@@H](C(=O)O[C@H]1C[C@@]2(O)[C@@H](OC(=O)c3ccccc3)[C@@H]3[C@]4(OC(C)=O)CO[C@@H]4C[C@H](O)[C@@]3(C)C(=O)[C@H](OC(C)=O)C(=C1C)C2(C)C)[C@@H](NC(=O)c1ccccc1)c1ccccc1	5.69
CC(=O)O[C@H]1C(=O)[C@@]2(C)[C@H]([C@H](OC(=O)c3ccccc3)[C@]3(O)C[C@H](OC(=O)[C@H](O)[C@@H](NC(=O)c4ccccc4)c4ccccc4)C(C)=C1C3(C)C)[C@]1(OC(C)=O)CO[C@@H]1C[C@@H]2O [PACLITAXEL]	6.51

Consider the record given below.
Q: Need pEC50 of COc1cc2c(c(OC)c1O)-c1ccc(SC)c(=O)cc1[C@@H](NC(C)=O)CC2 , thanks.
Result: 5.13

Just for reference, ChEMBL document CHEMBL1139194 is where these values come from.
